B1: VH:VL chains; a variant is named by its letters at X, in order (parent)
chain 1: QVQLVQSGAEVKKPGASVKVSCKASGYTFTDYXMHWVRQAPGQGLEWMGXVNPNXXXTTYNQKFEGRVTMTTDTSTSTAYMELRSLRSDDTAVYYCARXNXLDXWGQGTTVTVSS
chain 2: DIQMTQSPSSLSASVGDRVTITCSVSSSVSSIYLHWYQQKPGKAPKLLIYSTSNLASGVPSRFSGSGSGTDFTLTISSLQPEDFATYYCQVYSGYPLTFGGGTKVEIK

- Variants of: B1
- experiment.summary: yeast display scFab, FACS + sequencing
- reported.conditions: with MET
The list shows a part of the results. No count for the full screen is at hand.
endpoint.name: antigen binding call

variant.spec | endpoint.name | result
AGGGNAGD | antigen binding call | no binding
YRRRGDAD | antigen binding call | binds
DRAGDSLV | antigen binding call | binds
YEGTGAGA | antigen binding call | no binding
AEEKGSGD | antigen binding call | no binding
DRRGDSLV | antigen binding call | no binding

Input: For `DRGGDDAD` , what is its reported antigen binding call?
Output: no binding

Input: How about this variant: `DRAGDDWV`
Output: no binding

Input: Quick one: `YKGGSAWY`
Output: binds

Input: And what about the variant `FKKGSSWD` ?
Output: binds

Input: Continue with `DAGGGYGV`
Output: no binding

Input: Can you check `YEGGGDVY` next?
Output: no binding

Input: Also need `DERRSSAF` , thanks.
Output: no binding

Input: Could you do the same for `YKGTDAWY` , please?
Output: no binding

Input: How about `FRTEGSAD` ?
Output: binds

Input: Ok, now `VKGTDAWY`
Output: no binding

Input: What do we get for `FKKGSVGD` ?
Output: no binding
